- System: Diff.CD34+
- METHOD_NOTES: Inhibition of cell growth (GI50) in Diff.CD34+ cells, 7-d
- Assay type: cell-based
- APPLIED_CONDITIONS: 7-d, experiment of Aug. 13 2007, concentration required for 50% inhibition of cell growth, read-out: GI50 (μM Aug. 13 2007 7-d)
Here, each record is paired with measured GI50 data.
Give just the numeric value; µM need not be written.

CCCCCCCCCCCCSC[C@@H](COP(=O)(O)OC[C@H]1O[C@@H](n2cc(C)c(=O)[nH]c2=O)C[C@@H]1N=[N+]=[N-])OCCCCCCCCCC [FOZ ISO 851] | 1.2

Let's switch to this compound now.
Reported GI50 for CCCCCCCCCCCCSCC(COP(=O)(O)OC[C@H]1O[C@@H](n2cc(C)c(=O)[nH]c2=O)C[C@@H]1N=[N+]=[N-])OCCCCCCCCCC (stereo partly shown) [FOZ ISO 850] was 4

###

- METHOD_NOTES: Inhibition of cell growth (GI50) in Diff.CD34+ cells, 7-d
- Format: cell-based
- APPLIED_CONDITIONS: Diff.CD34+ cells, average of the two 7-d experiments, read-out: AVG GI50
Where a name gives a salt, the structure may show the parent alone.
PROPERTY_NAME: GI50 at 7 d (µM)
Give just the numeric value; µM need not be written.

Here's what some known entries look like.
Cc1cn([C@H]2C[C@H](N=[N+]=[N-])[C@@H](CO)O2)c(=O)[nH]c1=O [AZT, 3′-azido-3′-deoxythymidine, reference compound] | 0.14
CCCCCCCCCCCCSCC(COP(=O)(O)OC[C@H]1O[C@@H](n2cc(C)c(=O)[nH]c2=O)C[C@@H]1N=[N+]=[N-])OCCCCCCCCCC (stereo partly drawn) | 4

Reported GI50 at 7 d for CCCCCCCCCCCCSC[C@H](COP(=O)(O)OC[C@H]1O[C@@H](n2cc(C)c(=O)[nH]c2=O)C[C@@H]1N=[N+]=[N-])OCCCCCCCCCC (mixture of isomers) [FOZ MIX Na, sodium salt] was 1.83

###

Here, each record is paired with measured EC50 data.
- System: HIV-1 virus strain 20678
- METHOD_NOTES: Inhibition of infection of primary HIV-1 isolate 20678 in PBMCs (p24 antigen ELISA)
- Type: cell-based
- APPLIED_CONDITIONS: Human immunodeficiency virus 1, 192 h; PBMC infected with virus 20678, p24 production at day 8
Where a name gives a salt, the structure may show the parent alone.
Give just the numeric value; nM need not be written.

Here's what some known entries look like.
CCCCCCCCCCCCSC[C@@H](COP(=O)(O)OC[C@H]1O[C@@H](n2cc(C)c(=O)[nH]c2=O)C[C@@H]1N=[N+]=[N-])OCCCCCCCCCC [FOZ ISO 851] | 294
CCCCCCCCCCCCSC[C@H](COP(=O)(O)OC[C@H]1O[C@@H](n2cc(C)c(=O)[nH]c2=O)C[C@@H]1N=[N+]=[N-])OCCCCCCCCCC (mixture of isomers) [FOZ MIX Na, sodium salt] | 1410
CCCCCCCCCCCCSCC(COP(=O)(O)OC[C@H]1O[C@@H](n2cc(C)c(=O)[nH]c2=O)C[C@@H]1N=[N+]=[N-])OCCCCCCCCCC (stereo partly shown) [FOZ ISO 850] | 279

Let's switch to this compound now.
Lab entry: HIV-1 virus strain 20678 assay, compound Cc1cn([C@H]2C[C@H](N=[N+]=[N-])[C@@H](CO)O2)c(=O)[nH]c1=O [AZT, 3′-azido-3′-deoxythymidine, reference compound] , EC50 = 76

###

Here, each record is paired with measured GI50 data.
- Test system: Diff.CD34+
- METHOD_NOTES: Inhibition of cell growth (GI50) in Diff.CD34+ cells, 7-d
- Format: cell-based
- APPLIED_CONDITIONS: 7-d, experiment of Aug. 6, 2007, concentration required for 50% inhibition of cell growth, read-out: GI50 (μM) Aug. 6, 2007 7-d
Give just the numeric value; µM need not be written.

Here's what some known entries look like.
CCCCCCCCCCCCSC[C@@H](COP(=O)(O)OC[C@H]1O[C@@H](n2cc(C)c(=O)[nH]c2=O)C[C@@H]1N=[N+]=[N-])OCCCCCCCCCC [FOZ ISO 851] | 0.85
CCCCCCCCCCCCSC[C@@H](COP(=O)(O)OC[C@H]1O[C@@H](n2cc(C)c(=O)[nH]c2=O)C[C@@H]1N=[N+]=[N-])OCCCCCCCCCC [FOZ ISO 851 Na] | 2.2

Let's switch to this compound now.
Reported GI50 for CCCCCCCCCCCCSCC(COP(=O)(O)OC[C@H]1O[C@@H](n2cc(C)c(=O)[nH]c2=O)C[C@@H]1N=[N+]=[N-])OCCCCCCCCCC (stereo partly drawn) [FOZ ISO 850] was 2.2

###

- System: Diff.CD34+
- METHOD_NOTES: Inhibition of cell growth (GI50) in Diff.CD34+ cells, 7-d
- Type: cell-based
- APPLIED_CONDITIONS: average of the two 7-d experiments, read-out: AVG GI50
Here, each record is paired with measured GI50 data.
Give just the numeric value; nM need not be written.

Here's what some known entries look like.
CCCCCCCCCCCCSC[C@@H](COP(=O)(O)OC[C@H]1O[C@@H](n2cc(C)c(=O)[nH]c2=O)C[C@@H]1N=[N+]=[N-])OCCCCCCCCCC [FOZ ISO 851 Na] | 2200
CCCCCCCCCCCCSC[C@@H](COP(=O)(O)OC[C@H]1O[C@@H](n2cc(C)c(=O)[nH]c2=O)C[C@@H]1N=[N+]=[N-])OCCCCCCCCCC [FOZ ISO 851] | 1030

Let's switch to this compound now.
Reported GI50 for CCCCCCCCCCCCSCC(COP(=O)(O)OC[C@H]1O[C@@H](n2cc(C)c(=O)[nH]c2=O)C[C@@H]1N=[N+]=[N-])OCCCCCCCCCC (stereo partly drawn) [FOZ ISO 850] was 3090
